System: HL-60
Experiment: Cytotoxicity against human HL60 cells after 48 hrs by MTT assay
Assay type: functional, cell-based
Details: HL-60, 48 h
Listing: IC50 of selected molecules
Express your answer in µM, writing the number without its unit.

Sample answers from the record:
* CSCC[C@H](NC(=O)N[C@@H](Cc1ccccc1)C(=O)NC[C@H](N)Cc1ccccc1)C(=O)O | 270
* CSCC[C@H](NC(=O)N[C@@H](CS)C(=O)NC[C@H](N)Cc1ccccc1)C(=O)O | 1180

Pending molecule:
Input: Which IC50 is listed for N[C@@H](CNC(=O)[C@H](CS)NC(=O)N[C@H](CS)C(=O)O)Cc1ccccc1 ?
Output: 540
